- target of assay: human TLR8 (Homo sapiens, UniProt Q9NR97)
- Sequence (Q9NR97 27-1041): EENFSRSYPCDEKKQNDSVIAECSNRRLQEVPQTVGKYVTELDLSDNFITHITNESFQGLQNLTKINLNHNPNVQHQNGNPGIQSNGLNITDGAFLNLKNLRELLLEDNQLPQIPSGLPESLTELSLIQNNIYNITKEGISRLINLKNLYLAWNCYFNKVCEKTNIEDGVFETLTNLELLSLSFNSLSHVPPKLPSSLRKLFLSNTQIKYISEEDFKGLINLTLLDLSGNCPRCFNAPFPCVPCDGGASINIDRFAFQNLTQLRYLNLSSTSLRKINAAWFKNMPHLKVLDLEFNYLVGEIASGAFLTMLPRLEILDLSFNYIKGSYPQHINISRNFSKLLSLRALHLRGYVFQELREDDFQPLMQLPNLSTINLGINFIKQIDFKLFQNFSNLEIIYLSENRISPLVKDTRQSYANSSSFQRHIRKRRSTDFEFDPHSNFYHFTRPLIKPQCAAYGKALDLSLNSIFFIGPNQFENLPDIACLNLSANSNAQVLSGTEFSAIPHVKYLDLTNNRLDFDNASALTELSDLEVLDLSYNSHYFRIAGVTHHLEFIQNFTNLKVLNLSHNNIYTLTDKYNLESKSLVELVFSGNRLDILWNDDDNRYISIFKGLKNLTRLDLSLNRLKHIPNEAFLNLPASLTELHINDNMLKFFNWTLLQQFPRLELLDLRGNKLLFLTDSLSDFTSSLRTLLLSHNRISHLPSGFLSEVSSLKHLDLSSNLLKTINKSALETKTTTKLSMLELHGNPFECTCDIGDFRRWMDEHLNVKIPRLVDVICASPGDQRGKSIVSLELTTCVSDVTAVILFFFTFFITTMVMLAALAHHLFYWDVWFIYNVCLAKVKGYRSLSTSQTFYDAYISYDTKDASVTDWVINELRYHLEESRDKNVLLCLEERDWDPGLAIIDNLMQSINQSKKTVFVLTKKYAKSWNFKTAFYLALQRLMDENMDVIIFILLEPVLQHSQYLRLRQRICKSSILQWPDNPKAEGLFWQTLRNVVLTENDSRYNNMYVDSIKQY
- experiment notes: TLR8 inhibition reporter assay (HEK-Blue cells, SEAP reporter, R848 stimulation)
- test context: HEK-Blue cells overexpressing human TLR8, SEAP reporter, R848 15.9 μM
pIC50: −log10 of the molar value. Counter-ions that a name gives are not always drawn.
Below, each entry is listed with its recorded pIC50.
assay readout: pIC50

molecule=CC(C)c1c(-c2cn(C)c3c(=O)n(C)ccc23)[nH]c2ccc(C3CCN(CC(=O)N(C)C)CC3)cc12 target_of_assay="human TLR8 (Homo sapiens, UniProt Q9NR97)" assay_readout=pIC50 observed_result="> 7.00"
molecule=Cc1nc2c(C)cc(-c3[nH]c4ccc(C5CCNCC5)cc4c3C(C)C)cn2c1C target_of_assay="human TLR8 (Homo sapiens, UniProt Q9NR97)" assay_readout=pIC50 observed_result="6.00 to 7.00"
molecule=CNC(=O)CN1CCC(c2ccc3[nH]c(-c4cc(C(F)(F)F)c5nc(C)cn5c4)c(C(C)C)c3c2)CC1 target_of_assay="human TLR8 (Homo sapiens, UniProt Q9NR97)" assay_readout=pIC50 observed_result="6.00 to 7.00"
molecule=CCc1c(-c2ccnc3[nH]ncc23)[nH]c2ccc(C3CCN(CCN)CC3)cc12 target_of_assay="human TLR8 (Homo sapiens, UniProt Q9NR97)" assay_readout=pIC50 observed_result="> 7.00"
molecule=Cc1cc(-c2[nH]c3ccc(C4CCN(C(=O)CCN(C)C5CC5)CC4)cc3c2C(C)C)cn2nnnc12 target_of_assay="human TLR8 (Homo sapiens, UniProt Q9NR97)" assay_readout=pIC50 observed_result="> 7.00"
molecule=CC(C)c1c(-c2cnc3nccn3c2)[nH]c2ccc(C3CCN(CC(=O)N(C)C)CC3)cc12 target_of_assay="human TLR8 (Homo sapiens, UniProt Q9NR97)" assay_readout=pIC50 observed_result="6.00 to 7.00"
molecule=Cc1cc(-c2c[nH]c3nccc(-c4[nH]c5ccc(C6CCNCC6)cc5c4C)c23)n(C)n1 target_of_assay="human TLR8 (Homo sapiens, UniProt Q9NR97)" assay_readout=pIC50 observed_result="6.00 to 7.00"
molecule=Cc1c(-c2[nH]c3ccc(C4CCNCC4)cc3c2C(C)C)ccc2nccn12 target_of_assay="human TLR8 (Homo sapiens, UniProt Q9NR97)" assay_readout=pIC50 observed_result="6.00 to 7.00"
molecule=Cc1cn2cc(-c3[nH]c4ccc(C5CCN(C6COC6)CC5)cc4c3C(C)C)cc(C)c2n1 target_of_assay="human TLR8 (Homo sapiens, UniProt Q9NR97)" assay_readout=pIC50 observed_result="6.00 to 7.00"
molecule=CC(C)c1c(-c2cc(C(F)(F)F)c3nccn3c2)[nH]c2ccc(C3CCN(CC(=O)N(C)C)CC3)cc12 target_of_assay="human TLR8 (Homo sapiens, UniProt Q9NR97)" assay_readout=pIC50 observed_result="> 7.00"
molecule="CC(C)c1c(-c2ccnc3cnn(C)c23)[nH]c2ccc(C3CCNCC3)cc12 [Example 43]" target_of_assay="human TLR8 (Homo sapiens, UniProt Q9NR97)" assay_readout=pIC50 observed_result="> 7.00"
molecule=CC(C)c1c(-c2ccc(C#N)c3ncccc23)[nH]c2ccc(C3CCN(C(=O)CN(C)C)CC3)cc12 target_of_assay="human TLR8 (Homo sapiens, UniProt Q9NR97)" assay_readout=pIC50 observed_result="> 7.00"
molecule=CC(C)NCC(=O)N1CCC(c2ccc3[nH]c(-c4ccnc5[nH]ncc45)c(C(C)C)c3c2)CC1 target_of_assay="human TLR8 (Homo sapiens, UniProt Q9NR97)" assay_readout=pIC50 observed_result="> 7.00"
molecule=CNC(=O)CN1CCC(c2ccc3[nH]c(-c4cnc5ccnn5c4)c(C(C)C)c3c2)CC1 target_of_assay="human TLR8 (Homo sapiens, UniProt Q9NR97)" assay_readout=pIC50 observed_result="< 5.51"
molecule="CNCCN1CCC(c2ccc3[nH]c(-c4ccnc5[nH]ncc45)c(C(C)C)c3c2)CC1 [Example 650, dihydrochloride]" target_of_assay="human TLR8 (Homo sapiens, UniProt Q9NR97)" assay_readout=pIC50 observed_result="> 7.00"
molecule=Cc1cc(-c2[nH]c3ccc(C4CCNCC4)cc3c2C(C)C)cc2c(O)c(C#N)cnc12 target_of_assay="human TLR8 (Homo sapiens, UniProt Q9NR97)" assay_readout=pIC50 observed_result="< 5.51"

Origin of values: patent US11739098B2
